# subjectOfTest: Human immunodeficiency virus type 1 protease (Human immunodeficiency virus 1, UniProt Q72874)
pKi: −log10 of the molar value.
Assign class by pKi: not lower than 7 means Condition met; lower than 7 means Condition not met.

Use these answered entries as a reference point.
CC(C)(C)OC(=O)N1CCC[C@H]1C(=O)Nc1cccc(C(c2c(O)c3c(oc2=O)CCCCCC3)C2CC2)c1 (stereo partly specified)	Condition met
CCCC1CCCCCCc2c1oc(O)c(C(c1ccccc1)C1CC1)c2=O (stereo in doubt; 11)	Condition met
CC(C)(C)OC(=O)NCCC(=O)Nc1cccc(C(c2c(O)c3c(oc2=O)CCCCCC3)C2CC2)c1 (stereo unspecified)	Condition met
O=C(Nc1ccccc1)Nc1cccc(C(c2c(O)oc3c(c2=O)CCCCCC3)C2CC2)c1 (stereo unspecified)	Condition not met
CCCC1CCCCCCc2c1oc(O)c(C(c1ccccc1)C1CC1)c2=O (stereo in doubt; 11e)	Condition met

Please check the record COCCC1CCCCCc2c1oc(O)c(C(c1ccccc1)C1CC1)c2=O (stereo unspecified) and state if its pKi is at or above 7.
Condition met

Quick one: CC(C)CCC1CCCCCCc2c1oc(O)c(C(c1ccccc1)C1CC1)c2=O (stereo unspecified)
Condition met

OC1=C(C(c2ccccc2)C2CC2)COC2=C1CCCCCCC2 (stereo unspecified) , same question.
Condition met

What do we get for CCC(c1ccccc1)c1c(O)c2c(oc1=O)C(Cc1ccccc1)CCCCCC2 (stereo unspecified) ?
Condition not met
